// data source = patent US7829560B2

Measured pIC50 accompanies every entry in the list below.
Target: p38α (Homo sapiens, UniProt Q16539)
Construct: p38 MAP Kinases are recombinant human full-length proteins with an amino-terminal GST fusion; GST (N)
Sequence (Q16539 whole entry, the tested form may be a part): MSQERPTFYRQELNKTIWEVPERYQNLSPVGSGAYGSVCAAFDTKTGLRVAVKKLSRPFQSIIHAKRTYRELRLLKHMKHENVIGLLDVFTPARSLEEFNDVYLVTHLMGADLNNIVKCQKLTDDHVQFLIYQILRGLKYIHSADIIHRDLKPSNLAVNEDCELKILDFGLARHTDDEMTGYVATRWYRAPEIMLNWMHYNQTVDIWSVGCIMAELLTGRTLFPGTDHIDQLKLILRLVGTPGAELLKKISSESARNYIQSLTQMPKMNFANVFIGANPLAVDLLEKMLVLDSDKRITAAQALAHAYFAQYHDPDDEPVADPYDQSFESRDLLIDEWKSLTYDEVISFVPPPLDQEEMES
Assay: p38 MAP Kinase assay: inhibition of ATF2 phosphorylation, ELISA
Conditions: ATF2 phosphorylation; read-out: [ENZ] P38 ALPHA, IC50, ELISA
Units for pIC50: none; it is -log10 of a concentration expressed in mol/L.

- CSc1nccc(Oc2ccc(NC(=O)c3cc(F)cc(N4CCCC4)c3)c3ccccc23)n1: 6.72
- CSc1nccc(Oc2ccc(NC(=O)c3cc(F)cc(OC4CCCC4)c3)c3ccccc23)n1: 6.65
- O=C(Nc1ccc(Oc2ccnc(NCCN3CCOCC3)n2)c2ccccc12)c1cc(F)cc(N2CCOCC2)c1: 8.51
- CN(C(=N)N)c1nccc(Oc2ccc(NC(=O)c3cc(F)cc(N4CCOCC4)c3)c3ccccc23)n1: 7.74
- O=C(Nc1ccc(OCCN2CCC(CO)CC2)c2ccccc12)c1cc(F)cc(N2CCCCC2)c1: 5.32

Problem: # returns recorded pIC50 (system: p38α (Homo sapiens, UniProt Q16539)) for O=C(Nc1ccc(OCCN2CCOCC2)c2ccccc12)c1cccc(-c2ccncc2)c1
Solution: 5.38

Problem: Next entry: C[C@@H]1CN(c2nccc(Oc3ccc(NC(=O)c4cc(F)cc(N5CCOCC5)c4)c4ccccc34)n2)C[C@H](C)O1
Solution: 7.56

Problem: What do we get for CCN(C)c1cc(F)cc(C(=O)Nc2ccc(OCCN3CCOCC3)c3ccccc23)c1 ?
Solution: 5.95

Problem: And what about the compound O=C(Nc1ccc(OCCN2CCOCC2)c2ccccc12)c1cccc(-c2ccc(F)c(Cl)c2)c1 ?
Solution: 5.40

Problem: O=C(Nc1ccc(OCCN2CCOCC2)c2ccccc12)c1ccc2snnc2c1 ?
Solution: 5.91

Problem: Next entry: O=C(Nc1ccc(Oc2ccnc(N3CCC(CO)CC3)n2)c2ccccc12)c1cc(F)cc(N2CCOCC2)c1
Solution: 8.38

Problem: Quick one: COCC(C)Nc1nccc(Oc2ccc(NC(=O)c3cc(F)cc(N4CCCCC4)c3)c3ccccc23)n1 (stereo not drawn)
Solution: 8.15

Problem: Entry COCCNc1nccc(Oc2ccc(NC(=O)c3cc(F)cc(N4CCCCC4)c3)c3ccccc23)n1 please
Solution: 8.37

Problem: Repeat with CC1CCCN1c1cc(F)cc(C(=O)Nc2ccc(OCCN3CCOCC3)c3ccccc23)c1 (stereo not drawn)
Solution: 6.78

Problem: Note, next up: O=C(Nc1ccc(OCCCN2CCOCC2)c2ccccc12)c1cc(F)cc(N2CCCCC2)c1
Solution: 5.96

Problem: // next record CSc1nccc(Oc2ccc(NC(=O)c3cc(F)cc(OC4CCCCC4)c3)c3ccccc23)n1
Solution: 6.56

Problem: Same lookup for O=C(Nc1ccc(OCCN2CCOCC2)c2ccccc12)c1cc(Cl)nc(N2CCOCC2)c1 , please.
Solution: 5.85

Problem: Query O=C(Nc1ccc(OCCN2CCOCC2)c2ccccc12)c1cccc(-c2cc(F)ccc2F)c1 next
Solution: 5.25

Problem: What about CC1CCC(Nc2nccc(Oc3ccc(NC(=O)c4cc(F)cc(N5CCCCC5)c4)c4ccccc34)n2)CC1 (stereo not drawn) ?
Solution: 7.37

Problem: Try the compound O=C1CN(c2nccc(Oc3ccc(NC(=O)c4cc(F)cc(N5CCOCC5)c4)c4ccccc34)n2)CCN1
Solution: 7.71

Problem: What about this compound? O=C(Nc1ccc(Oc2ccnc(N3CCC(F)(F)CC3)n2)c2ccccc12)c1cc(F)cc(N2CCCCC2)c1
Solution: 6.95

Problem: Queued: O=C(Nc1ccc(Oc2ccnc(N3CCCC(O)C3)n2)c2ccccc12)c1cc(F)cc(N2CCCCC2)c1 (stereo not drawn)
Solution: 7.84

Problem: Another: CN1CCN(c2nccc(Oc3ccc(NC(=O)c4cc(F)cc(N5CCOCC5)c4)c4ccccc34)n2)CC1
Solution: 8.36
